Listed below: hERG current change (%, negative = inhibition) at 10uM values for each entry.
Biological target: human ether-à-go-go-related gene (hERG) potassium channel (human, UniProt Q12809);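 note: peak tail current of the secondary pulse compared with the same well before compound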
Sequence (Q12809 whole entry, looked up): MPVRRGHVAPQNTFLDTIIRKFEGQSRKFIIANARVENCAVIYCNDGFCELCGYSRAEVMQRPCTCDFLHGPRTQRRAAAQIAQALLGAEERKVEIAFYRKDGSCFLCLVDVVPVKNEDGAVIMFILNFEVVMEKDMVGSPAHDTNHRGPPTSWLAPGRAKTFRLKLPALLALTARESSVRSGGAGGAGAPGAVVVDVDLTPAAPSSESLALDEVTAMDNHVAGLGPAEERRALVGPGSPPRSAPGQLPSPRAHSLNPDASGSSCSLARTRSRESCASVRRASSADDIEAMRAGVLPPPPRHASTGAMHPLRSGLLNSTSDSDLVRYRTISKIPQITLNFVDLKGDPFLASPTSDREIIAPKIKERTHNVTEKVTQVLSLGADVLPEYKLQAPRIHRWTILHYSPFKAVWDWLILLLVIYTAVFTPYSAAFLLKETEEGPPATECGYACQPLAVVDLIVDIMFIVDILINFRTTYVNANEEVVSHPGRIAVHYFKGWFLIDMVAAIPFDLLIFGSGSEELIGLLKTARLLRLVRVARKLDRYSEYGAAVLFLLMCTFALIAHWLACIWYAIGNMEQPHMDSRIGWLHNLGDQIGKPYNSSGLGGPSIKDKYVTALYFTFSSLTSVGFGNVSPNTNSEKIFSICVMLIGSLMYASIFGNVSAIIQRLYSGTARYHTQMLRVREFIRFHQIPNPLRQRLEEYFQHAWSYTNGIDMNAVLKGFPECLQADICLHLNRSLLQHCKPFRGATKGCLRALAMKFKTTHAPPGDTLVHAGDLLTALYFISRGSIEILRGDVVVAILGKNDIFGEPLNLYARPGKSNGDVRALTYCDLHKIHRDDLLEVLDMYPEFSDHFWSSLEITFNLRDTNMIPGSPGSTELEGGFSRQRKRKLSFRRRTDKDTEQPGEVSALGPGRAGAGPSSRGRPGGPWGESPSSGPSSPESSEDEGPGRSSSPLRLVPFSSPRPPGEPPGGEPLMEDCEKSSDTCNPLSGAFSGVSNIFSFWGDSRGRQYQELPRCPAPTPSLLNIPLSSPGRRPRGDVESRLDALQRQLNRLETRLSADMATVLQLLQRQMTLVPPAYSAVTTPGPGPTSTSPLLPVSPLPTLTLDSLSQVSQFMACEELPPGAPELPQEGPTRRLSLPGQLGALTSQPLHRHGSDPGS
Test: primary screen, population patch clamp on CHO cells stably expressing hERG; higher = less effect of the substance
Method: Briefly, Chinese hamster ovary (CHO) cells stably expressing the hERG channel were dislodged from tissue culture flasks and dispensed into PPC plates. […] During the recording, background leak currents were estimated by a 100 ms step to -80 mV from an initial holding potential of -70 mV and subtracted from the subsequent current measurement. The campaign was conducted in two phases using slight differences in recording protocol. […]
Among all 310,000 compounds or so, about 14,000 (4.5%) showed an effect of 50% or more. The effect is printed as a negative number. Many of the other results were omitted from the sample, so strong results are more common in it than they were.
Numbers only; they are read as %.

Field: example entries. Status: answers known.
> print(dat)
                                   compound                              study.system  readout.number
1  COc1cccc(C(=O)N/N=C/c2ccc(OC3CSC3)cc2)c1  human ether-à-go-go-related gene (hERG) potassium channel (human, UniProt Q12809)             5.4
2      O=C(N/N=C/c1ccc(OC2CSC2)cc1)c1ccccc1  human ether-à-go-go-related gene (hERG) potassium channel (human, UniProt Q12809)           -13.6
3  O=C(NCc1ccco1)/C(=C/C=C/c1ccccc1)NC(=O)c1ccco1  human ether-à-go-go-related gene (hERG) potassium channel (human, UniProt Q12809)           -36.4
4  CC1(C)CC(NC(=O)COc2ccc3ccccc3c2)CC(C)(C)N1  human ether-à-go-go-related gene (hERG) potassium channel (human, UniProt Q12809)           -12.6

[Q] What does the record list as hERG current change (%, negative = inhibition) at 10uM for CC1=CC(C)(C)N(C(=O)C(C)N2C(=O)c3ccccc3C2=O)c2ccc(C)cc21 (stereo not shown) ?
[A] 2.88

[Q] Item under review: `CCOP(=S)(OCC)Oc1cc(C)oc(=O)c1Cl` . Reported hERG current change (%, negative = inhibition) at 10uM?
[A] 19.6

[Q] Given `Cc1ccc(C(=O)N/C(=C/C=C/c2ccccc2)C(=O)NCc2ccco2)cc1` , state its recorded hERG current change (%, negative = inhibition) at 10uM.
[A] -28.9

[Q] Could you share which hERG current change (%, negative = inhibition) at 10uM value was measured for O=C(NCCc1ccco1)C(=O)NCC1OCCCN1S(=O)(=O)c1cc(F)ccc1F (stereo not shown) ?
[A] -8.36

[Q] So what does the record say about hERG current change (%, negative = inhibition) at 10uM for `CC(C)(c1ccccc1)c1ccc(OCCN)cc1.Cl` ?
[A] -20.2

[Q] What value of measured hERG current change (%, negative = inhibition) at 10uM is listed for `Cc1cccc(C(=O)N/N=C/c2ccc(OC3CSC3)cc2)c1` ?
[A] -92.4

###

molecular target: human ether-à-go-go-related gene (hERG) potassium channel (human, UniProt Q12809); assay: primary screen, population patch clamp on CHO cells stably expressing hERG; higher = less effect of the substance;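 note: peak tail current of the secondary pulse compared with the same well before compound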
Screen size: about 310,000 compounds; about 14,000 (4.5%) showed an effect of 50% or more. Effects have a minus sign here. This excerpt belongs to a sample that is enriched for strong results.
Measure name: hERG current change (%, negative = inhibition) at 10uM (%)
Number in %, nothing else.

Solved entries:
> print(dat)
                                   compound  readout.number
1  CCCC(=O)N(c1ccc(C(=O)O)cc1)c1nc(-c2ccccc2)c(C)s1            14.2
2  O=C(Nc1ccccc1Cl)N1CCN(c2ccc3nnc(-c4ccc(F)cc4)n3n2)CC1           -42.1
3  Br.Cn1c(=N)n(CC(=O)c2ccc(Cl)c(Cl)c2)c2ccccc21           -64.1
4  Br.CCn1c(=N)n(CC(=O)c2ccc(Cl)c(Cl)c2)c2ccccc21           -51.4
5            NC12CC3CC(C1)CC(CC(=O)O)(C3)C2            10.8

[Q] Given the entry `Br.CCCn1c(=N)n(CC(=O)O)c2ccccc21` , what hERG current change (%, negative = inhibition) at 10uM was observed with human ether-à-go-go-related gene (hERG) potassium channel (human, UniProt Q12809)?
[A] -5.8

[Q] Notebook entry, human ether-à-go-go-related gene (hERG) potassium channel (human, UniProt Q12809) assay: hERG current change (%, negative = inhibition) at 10uM of `O=C(Nc1cccc(S(=O)(=O)Nc2ccc(Cl)cc2)c1)c1ccc(Cl)nc1` = ?
[A] 19.8

[Q] Find hERG current change (%, negative = inhibition) at 10uM (human ether-à-go-go-related gene (hERG) potassium channel (human, UniProt Q12809)) for the entry `Br.Cn1c(=N)n(CC(=O)c2ccc(Br)cc2)c2ccccc21`
[A] -41

[Q] Under human ether-à-go-go-related gene (hERG) potassium channel (human, UniProt Q12809): hERG current change (%, negative = inhibition) at 10uM value of `O=C(Nc1ccc(O)c(-c2nc3ccccc3s2)c1)c1cccs1` ?
[A] -9.79

[Q] I'm curious: which hERG current change (%, negative = inhibition) at 10uM was measured for `CCCCNC(=S)N/N=C/c1ccccc1F` tested on human ether-à-go-go-related gene (hERG) potassium channel (human, UniProt Q12809)?;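 note: peak tail current of the secondary pulse compared with the same well before compound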
[A] 2.81

[Q] Write down the reported hERG current change (%, negative = inhibition) at 10uM of `O=C(Nc1cccc(-c2nc3ccccc3s2)c1)c1cccs1` , test system: human ether-à-go-go-related gene (hERG) potassium channel (human, UniProt Q12809).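 Note: peak tail current of the secondary pulse compared with the same well before compound.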
[A] -53.1

[Q] Observed hERG current change (%, negative = inhibition) at 10uM on human ether-à-go-go-related gene (hERG) potassium channel (human, UniProt Q12809) for `O=C(Nc1ccccc1Cl)N1CCN(c2ccc3nnc(-c4ccccc4)n3n2)CC1` , please.
[A] -73.5

[Q] Value wanted: hERG current change (%, negative = inhibition) at 10uM (human ether-à-go-go-related gene (hERG) potassium channel (human, UniProt Q12809)) of entry `Br.Cn1c(=N)n(CC(=O)c2ccccc2)c2ccccc21`
[A] -12.4

[Q] Value wanted: hERG current change (%, negative = inhibition) at 10uM (human ether-à-go-go-related gene (hERG) potassium channel (human, UniProt Q12809)) of entry `CC(=O)Nc1cccc(-c2nc3ccccc3s2)c1`
[A] -13.4

[Q] Given the entry `O=C(O)COn1c(-c2ccccc2)nc2ccc([N+](=O)[O-])cc21` , what hERG current change (%, negative = inhibition) at 10uM was observed with human ether-à-go-go-related gene (hERG) potassium channel (human, UniProt Q12809)?
[A] 11.3

[Q] What reported hERG current change (%, negative = inhibition) at 10uM corresponds to `Br.C=CCn1c(=N)n(CC(=O)c2ccc(Cl)cc2)c2ccccc21` on human ether-à-go-go-related gene (hERG) potassium channel (human, UniProt Q12809)?
[A] -36.1

[Q] What value of hERG current change (%, negative = inhibition) at 10uM on human ether-à-go-go-related gene (hERG) potassium channel (human, UniProt Q12809) does `Cc1ccc(NC(=O)CN2CCOCC2)c(Br)c1` have?
[A] -9.76

[Q] Field: hERG current change (%, negative = inhibition) at 10uM (human ether-à-go-go-related gene (hERG) potassium channel (human, UniProt Q12809)). Entry: CC(C)OC(=O)CCC1(C(=O)O)CCC(=O)NC1 (stereo not shown)
[A] 7.55

[Q] Record Cc1cc2oc(C(=O)NC3CCS(=O)(=O)C3)c(C)c2cc1C (stereo not shown) : what is its hERG current change (%, negative = inhibition) at 10uM with human ether-à-go-go-related gene (hERG) potassium channel (human, UniProt Q12809)?
[A] 2.69

[Q] Notebook entry, human ether-à-go-go-related gene (hERG) potassium channel (human, UniProt Q12809) assay: hERG current change (%, negative = inhibition) at 10uM of `COC(=O)Cc1ccc(NC(=O)c2ccc3c(c2)C(=O)N(Cc2cccnc2)C3=O)cc1` = ?
[A] 5.83

[Q] Query for human ether-à-go-go-related gene (hERG) potassium channel (human, UniProt Q12809): what hERG current change (%, negative = inhibition) at 10uM does the record show for `c1ccc(COc2ccc(-c3csnn3)cc2)cc1` ?
[A] -3.17

[Q] Identify the measured hERG current change (%, negative = inhibition) at 10uM of Cc1ccccc1N(C(=O)c1csnn1)C(C(=O)NC1CCCCC1)c1ccncc1 (stereo not shown) for human ether-à-go-go-related gene (hERG) potassium channel (human, UniProt Q12809).
[A] 10.7
